method_notes: qHTS assay to identify small molecule agonists of the sonic hedgehog signaling (Shh) pathway - cell viability counter screen (AID 1259366); note: % is set by controls: 0 for no effect and ±100 for the full control effect; nearly all actives have a fitted effect of over 50% in size
condition_info: NIH/3T3 Gli1-Luc viability, CellTiter-Fluor, 24 h; series mostly up to 92.4 µM
Description: National Center for Advancing Translational Sciences [NCATS] NIH Chemical Genomics Center [NCGC] U.S. Environmental Protection Agency [EPA] National Institutes of Environmental Health Sciences [NIEHS] National Toxicology Program [NTP] U.S. Food and Drug Administration [FDA] The sonic hedgehog (Shh) pathway is essential for normal embryonic development. Dysregulation of the Shh pathway can cause severe developmental defects in organs. […]
Results filed as inconclusive are left out. Active and inactive are the calls of the source. Calls come from the whole dose curve; as a rule, active = well fitted cell-killing curve with a large enough effect in the repeat runs; inconclusive = weak or mixed curves, or effect the other way; inactive = flat fitted curve, though single readings scatter.
parameter: viability change, negative = cytotoxic

1) CC(C)=CCC/C(C)=C\C#N: inactive
2) COC(=O)c1c(C)cc(O)c(C)c1O: inactive
3) CCN1CCN(C(=O)N[C@@H](C(=O)N[C@@H]2C(=O)N3C(C(=O)O)=C(CSc4nnnn4C)CS[C@H]23)c2ccc(O)cc2)C(=O)C1=O: inactive
4) COc1cc(S(N)(=O)=O)cc(C(=O)O)c1OC: inactive
5) CCCCCCCCCCCCCCCCN(C)C: 4.7% [at 8.39 µM] (inactive)
6) CC(=O)c1ccc2ccc3ccccc3c2c1: inactive
